Values were extracted from PubChem BioAssay.

# measurementNotes: human hepatoma cell viability loss – ATP luminescence, cytotoxicity control for P. falciparum antimalarial project, primary screen (AID 2303);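 also: 0% = DMSO wells and 100% = digitonin-killed cells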
# testConditions: HepG2 viability, 24-48 h, at 10 µM, stronger effect = higher value
readout: inhibition (%)

# compound, readout, unitsOfMeasure, resultValue
data = [
    ("CS(=O)(=O)N1CC2(CCN(CCC(NC(=O)NCc3ccccc3Cl)c3ccc(Cl)c(Cl)c3)CC2)c2ccccc21 (configuration not stated)", "inhibition", "%", 12),
    ("Cc1cccc2[nH]c(-c3ccc(-c4cccc(CN5CCCC(N)C5)c4)s3)nc12 (configuration not stated)", "inhibition", "%", 17),
    ("CCC(=O)c1c(C)n(-c2ncnc3c2nc(C)n3-c2ccc(C)cc2C)c2ccccc12", "inhibition", "%", -16),
    ("CCCCN(C(=O)c1ccccc1Cl)c1nnc(-c2ccccc2C)s1", "inhibition", "%", 12),
    ("COc1ccc(CNc2nc(NCc3ccc(C(F)(F)F)cc3)c3cc(OC)c(OC)cc3n2)cc1OC", "inhibition", "%", 80),
    ("CCCCc1cc(NCc2ccncc2)nc(Nc2ccc(OC)cc2)n1", "inhibition", "%", 11),
    ("CC(C)COc1ccc(Cl)cc1Cc1ccc(-c2nc3c(F)cccc3[nH]2)o1", "inhibition", "%", 15),
]
